test system: HCV replicon; test: HCV replicon replication assay (NPT level by captured ELISA); format: cell-based; details: Hepatitis C virus, 72 h; Huh-7 HCV replicon-containing cells, three days incubation; read-out: Activity (inhibition of HCV replicon replication)
pEC50: −log10 of the molar value.
Experimental readout: pEC50

compound=CC(=O)c1cc(Nc2nc(-c3cccnc3)c(F)s2)ccc1Oc1ccccc1 experimental_readout=pEC50 result="> 6.00"
compound=Cc1ccc(Nc2nc(-c3cccnc3)c(F)s2)cc1OCC1CCCCC1 experimental_readout=pEC50 result="> 6.00"
compound=CCCCCCCCc1ccc(Nc2nc(-c3cccnc3)c(F)s2)cc1C(F)(F)F experimental_readout=pEC50 result="> 6.00"
compound=Cc1ccc(CCCCOc2ccc(Nc3nc(-c4cccnc4)c(Cl)s3)cc2C(F)(F)F)cc1 experimental_readout=pEC50 result="> 6.00"
compound=CCCCCCCCc1ccc(Nc2nc(-c3ccccc3)c(CC(=O)O)s2)cc1C(F)(F)F experimental_readout=pEC50 result="5.00 to 6.00"
compound=Cc1cccc(OCCCc2ccc(Nc3nc(-c4cccnc4)c(F)s3)cc2C(F)(F)F)c1 experimental_readout=pEC50 result="> 6.00"
compound=CCCCCOc1cc(Nc2nc(-c3cccnc3)c(F)s2)ccc1C(F)(F)F experimental_readout=pEC50 result="5.00 to 6.00"
compound=Cc1ccccc1CCCCOc1ccc(Nc2nc(-c3cccnc3)cs2)cc1C(F)(F)F experimental_readout=pEC50 result="> 6.00"
compound="CCCCCCCC(C)Oc1ccc(Nc2nc(-c3cccnc3)c(F)s2)cc1C(F)(F)F (stereo not drawn)" experimental_readout=pEC50 result="> 6.00"
